Recorded values, source patent US9550792B2.

Overview of reported inhibition at 1 µM across a group of compounds:
Molecular target: Aurora A (Homo sapiens)
Construct: purchased
Sequence (O14965 1-403): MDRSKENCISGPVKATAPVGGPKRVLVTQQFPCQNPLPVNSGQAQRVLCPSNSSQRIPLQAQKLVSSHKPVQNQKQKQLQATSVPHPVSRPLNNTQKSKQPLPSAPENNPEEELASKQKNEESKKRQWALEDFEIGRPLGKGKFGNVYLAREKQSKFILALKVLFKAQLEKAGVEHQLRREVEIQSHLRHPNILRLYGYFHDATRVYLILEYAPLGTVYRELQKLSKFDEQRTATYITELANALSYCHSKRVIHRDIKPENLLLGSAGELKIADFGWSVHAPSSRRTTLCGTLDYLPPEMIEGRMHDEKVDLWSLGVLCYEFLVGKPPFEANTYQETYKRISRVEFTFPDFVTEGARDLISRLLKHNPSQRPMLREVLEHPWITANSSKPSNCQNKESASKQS
Assay: Inhibitory activity to Aurora A (FRET)
Type: biochemical
Details: read-out: Aurora A inhibition % (1 × 10^−6 mol/L)
Give a bare numeral; the unit % is implied.

Prompt: Request the reported inhibition at 1 µM associated with O=C(Nc1ccc(CN2CCOCC2)cc1)c1n[nH]cc1Nc1ccnc2occc12 [Compound I-42]
Completion: 51.8

Prompt: Recorded inhibition at 1 µM for O=C(Nc1ccc(CN2CCOCC2)cc1)c1n[nH]cc1Nc1ncnc2ccoc12 [Compound I-24] , please?
Completion: 49.2

* * *

Experiment: Pharmacokinetics after single oral dose in rats
Format: in vivo, Wistar rat
Settings: male, Wistar, plasma; rat, oral 30 mg/kg; read-out: AUC 0-24
Listed next: entries and their corresponding AUC(0-t).
Just the number please, in µg·h/mL, no unit attached.

Prompt: Fill blank: measured AUC(0-t) of the molecule `CN1CCN(Cc2ccc(NC(=O)c3n[nH]cc3Nc3ncnc4sccc34)cc2)CC1` is ____.
Completion: 3.35

Prompt: Field request: AUC(0-t) | item: `O=C(Nc1ccc(CN2CCOCC2)cc1)c1n[nH]cc1Nc1ncnc2sccc12`
Completion: 4.35

* * *

Attribute: CDK2 inhibition % (1 × 10^−6 mol/L)
Target: CDK2/A (Homo sapiens, UniProt P24941)
Construct: purchased
Test: Inhibitory activity to CDK2 (FRET)
Assay type: biochemical
Details: 1 × 10^−6 mol/L

Smiles Text	CDK2 inhibition % (1 × 10^−6 mol/L)
Cc1csc2c(Nc3c[nH]nc3C(=O)Nc3ccc(CN4CCN(C)CC4)cc3)nccc12	45.34%
Cc1cc2c(Nc3c[nH]nc3C(=O)Nc3ccc(CN4CCOCC4)cc3)ncnc2s1	52.73%
Cc1cc2ccnc(Nc3c[nH]nc3C(=O)Nc3ccc(CN4CCN(C)CC4)cc3)c2[nH]1	60.11%

Query compound follows.
Prompt: Look up CDK2 inhibition % (1 × 10^−6 mol/L) for this compound: `CN1CCN(Cc2ccc(NC(=O)c3n[nH]cc3Nc3nccc4occc34)cc2)CC1`
Completion: 44.93%

* * *

Recorded melting point for the following molecules

In the examples that follow, each entry is paired with its recorded melting point.
Smiles Text	Recorded Result
CN1CCN(Cc2ccc(NC(=O)c3n[nH]cc3Nc3ncnc4occc34)cc2)CC1	255 to 257 °C
CN1CCN(Cc2ccc(NC(=O)c3n[nH]cc3Nc3ncnc4ccoc34)cc2)CC1	277 to 279 °C
O=C(Nc1ccc(CN2CCOCC2)cc1)c1n[nH]cc1Nc1ccnc2ccoc12	275 to 278 °C
O=C(Nc1ccc(CN2CCOCC2)cc1)c1n[nH]cc1Nc1ncnc2sccc12	262 to 265 °C
O=C(Nc1ccc(CN2CCOCC2)cc1)c1n[nH]cc1Nc1ncnc2ccsc12	275 to 277 °C

Prompt: Recorded melting point of `O=C(Nc1ccc(CN2CCOCC2)cc1)c1n[nH]cc1Nc1nccc2sccc12` , please.
Completion: 269 to 271 °C

Prompt: # get_value(readout='melting point', item= `CN1CCN(Cc2ccc(NC(=O)c3n[nH]cc3Nc3ncnc4ccsc34)cc2)CC1` )
Completion: > 280 °C

Prompt: I would be grateful if you could share the reported melting point for `O=C(Nc1ccc(CN2CCOCC2)cc1)c1n[nH]cc1Nc1ncnc2occc12` .
Completion: > 280 °C

Prompt: What does the data say about its melting point? Entry: `Cc1cc2c(Nc3c[nH]nc3C(=O)Nc3ccc(CN4CCN(C)CC4)cc3)ncnc2s1`
Completion: 235 to 238 °C

Prompt: Would you mind telling me what melting point value was observed for `CN1CCN(Cc2ccc(NC(=O)c3n[nH]cc3Nc3nccc4ccoc34)cc2)CC1` ?
Completion: 258 to 261 °C

Prompt: Reported melting point, molecule `O=C(Nc1ccc(CN2CCOCC2)cc1)c1n[nH]cc1Nc1nccc2ccsc12` : ____
Completion: 271 to 273 °C

Prompt: What does the record list as melting point for `O=C(Nc1ccc(CN2CCOCC2)cc1)c1n[nH]cc1Nc1nccc2occc12` ?
Completion: 268 to 271 °C

Prompt: Which melting point is reported for this molecule? `Cc1cc2c(Nc3c[nH]nc3C(=O)Nc3ccc(CN4CCN(C)CC4)cc3)nccc2s1`
Completion: 267 to 269 °C

Prompt: Report melting point for `CN1CCN(Cc2ccc(NC(=O)c3n[nH]cc3Nc3ccnc4occc34)cc2)CC1` please.
Completion: 273 to 276 °C
